TESTED_ON: T1, high affinity SIRP-α D1 variant CV1-3
T1 chain: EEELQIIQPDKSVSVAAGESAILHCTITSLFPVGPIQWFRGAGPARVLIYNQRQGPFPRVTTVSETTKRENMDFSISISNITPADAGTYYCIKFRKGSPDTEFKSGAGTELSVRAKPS
ASSAY_NAME: SPR, Langmuir fit
PARAMETER_MEASURED: koff (s⁻¹)
Numeric answer only, unit s⁻¹ assumed.

Example binders with recorded koff:
# BINDER, koff (s⁻¹)
measured = [
    ("S71 (scFv, V domains shown, also called clone 71) VH: DVQLVESGGGVVRPGESLRLSCAASGFTFSSYAMSWVRQAPGKGLEWLAGISAGGSDTYYIDSVKGRFTISRDNSKNSLYLQMNSLTAEDTAVYYCARETWNHLFDYWGLGTLVTVSS VL: ALTQPASVSANPGETVKITCSGGGYYSTYYGWYQQKSPGSAPVTVIHSDDKRPSDIPSRFSGSASGSAATLTITGVRVEDEAVYYCAGYDARTYINTFGAGTTLTVL", 0.000379),
    ("S209 (scFv, V domains shown) VH: DVQLVESGGAVVRPGESLRLSCKASGFTFTNFAMSWVRQAPGEGLEWVSGISGSDDTTYYADSVKGRFTISRDNSESTLYLQMNSLRAEDTAVYYCVKDSTVSWNTFFDYWGLGTLVTVSS VL: ALTQPASVSANLGGTVKITCSGGYGSDDGSSSYYGWYQQKSPGSAPVILIYWDDKRPSDIPSRFSGSTSGSTTTLTITGVQAEDEAVYFCGTYDTSSGAIFGAGTTLTVL", 0.00245),
]

Q: If you can, please state the reported koff value of S22 (scFv, V domains shown, also called clone 22) VH: DVQLVESGGGVVRPGESLRLSCAASGFTFSSYAMSWVRQAPGKGLEWLAGISAGGSDTYYIDSVKGRFTISRRQFQEQSLSPNEPALTAEDTAVYYCARETWNHLFDYWGLGTLVTVSS VL: ALTQPASVSANPGETVKITCSGGDYYSTYYGWYQQKSPGSAPVTVIHSDDKRPSDIPSRFSGSASGSAATLTIAGVRVEDEAVYFCGAYDGRTYINTFGAGTTLTVL .
Ans: 0.000135
